Data provenance is ChEMBL document CHEMBL1255419.

test system: Bacillus anthracis; test: microbe, parasite or virus in culture; assay type: functional
observable: MIC

query: Item C[C@H]1c2cccc(O)c2C(=O)C2=C(O)[C@]3(O)C(=O)C(C(N)=O)=C(O)[C@@H](N(C)C)[C@@H]3[C@@H](O)[C@@H]21.O has what recorded MIC?
result: ≤ 0.06 µg/mL

query: Give the measured MIC of CN(C)[C@@H]1C(O)=C(C(N)=O)C(=O)[C@@]2(O)C(O)=C3C(=O)c4c(O)cccc4[C@@](C)(O)[C@H]3C[C@@H]12 .
result: ≤ 0.06 µg/mL

Now consider the entry below.
query: Sample Cc1oc(=O)oc1COC(=O)C1=C([C@H]2CCCO2)S[C@@H]2[C@@H]([C@@H](C)O)C(=O)N12 — what was its MIC?
result: ≤ 0.06 µg/mL
